- target: human NCX1 (Homo sapiens)
- Construct: expressed in transfected cells
- protocol_details: NCX1 inhibition, reverse mode (Ca2+ influx into cells), FLIPR Fluo-4 assay
- Type: cell-based
- conditions: inhibition of NCX1 in reverse mode (Ca2+ influx into cells); read-out: NCX1rv IC50
pIC50: −log10 of the molar value. Counter-ions that a name gives are not always drawn.
Listed below: pIC50 values for each entry.
property_label: pIC50

[[record]]
compound = "Cc1cc(C(=O)NCc2cnc(Oc3ccc4c(c3)CCC(c3ccccc3)O4)s2)on1 (stereo not shown)"
measured = 6.52

[[record]]
compound = "Cc1nn(C)c(C)c1CCC(=O)NCc1cnc(Oc2ccc3c(c2)CC[C@@H](c2ccccc2)O3)s1"
measured = 5.96

[[record]]
compound = "CCCCN(C)Cc1cnc(Oc2ccc3c(c2)CCC(c2ccccc2)O3)s1 (stereo not shown)"
measured = 6.15

[[record]]
compound = "Cc1ccccc1C1CCc2cc(Oc3ncc(CNC(=O)CN4C(=O)CNC4=O)s3)ccc2O1 (stereo not shown)"
measured = 6.05

[[record]]
compound = "CCn1cc(C(=O)NCc2cnc(Oc3ccc4c(c3)CCC(c3ccccc3)O4)s2)cn1 (stereo not shown)"
measured = 6.52

[[record]]
compound = "C[C@H](NC(=O)c1cnc(Oc2ccc3c(c2)CC[C@@H](c2ccccc2)O3)s1)C(=O)O"
measured = 6.22

[[record]]
compound = "O=C(NCc1ccno1)c1cnc(Oc2ccc3c(c2)CCC(c2cnccn2)O3)s1 (stereo not shown)"
measured = 5.33

[[record]]
compound = "Cn1cnc(S(=O)(=O)NCc2cnc(Oc3ccc4c(c3)CCC(c3ccccc3)O4)s2)c1 (stereo not shown) [compound 50, hydrochloride]"
measured = 6.70

[[record]]
compound = "C[C@H](NC(=O)c1cnc(Oc2ccc3c(c2)CCC(c2ccccc2)O3)s1)c1nccs1 (stereo partly shown)"
measured = 6.70

[[record]]
compound = "Cc1nc(C(=O)NCc2cnc(Oc3ccc4c(c3)CCC(c3ccccc3)O4)s2)cs1 (stereo not shown)"
measured = 6.52

[[record]]
compound = "Cc1c(CNC(=O)c2cnc(Oc3ccc4c(c3)CCC(c3cccc(F)c3)O4)s2)cnn1C (stereo not shown)"
measured = 6.70

[[record]]
compound = "N[C@@H](CO)C(=O)NCc1cnc(Oc2ccc3c(c2)CCC(c2ccccc2)O3)s1 (stereo partly shown) [compound 340, hydrochloride]"
measured = 6.05

[[record]]
compound = "Cc1c(CNC(=O)c2cnc(Oc3ccc4c(c3)CC[C@@H](c3ccccc3)O4)s2)cnn1C"
measured = 6.52


---

- target: human NCX1 (Homo sapiens, UniProt P32418)
- Construct: expressed in transfected cells
- protocol_details: NCX1 inhibition, reverse mode (Ca2+ influx into cells), FLIPR Fluo-4 assay
- Format: cell-based
- conditions: inhibition of NCX1 in reverse mode (Ca2+ influx into cells); read-out: NCX1rv IC50
Counter-ions that a name gives are not always drawn.
Listing of recorded IC50 by entry.
property_label: IC50 (nM)

[[record]]
compound = "Cc1cc2c(cc1Oc1ncc(C(=O)NCc3ccno3)s1)CCC(c1ccccc1C)O2 (stereo not shown)"
measure_unit = "nM"
measured = 830

[[record]]
compound = "c1ccc(C2CCc3cc(Oc4ncc(CNCc5ccnc(N6CCOCC6)c5)s4)ccc3O2)cc1 (stereo not shown)"
measure_unit = "nM"
measured = 400

[[record]]
compound = "CCOC(=O)[C@H](Cc1ccccc1)NC(=O)c1cnc(Oc2ccc3c(c2)CC[C@@H](c2ccccc2)O3)s1"
measure_unit = "nM"
measured = 4800

[[record]]
compound = "O=C(NCC(O)CO)c1cnc(Oc2ccc3c(c2)CCC(c2ccccc2)O3)s1 (stereo not shown)"
measure_unit = "nM"
measured = 300

[[record]]
compound = "C1=C(CNCc2cnc(Oc3ccc4c(c3)CCC(c3ccccc3)O4)s2)N2CCCN=C2S1 (stereo not shown)"
measure_unit = "nM"
measured = 800

[[record]]
compound = "CCOC(=O)[C@H](C)NC(=O)c1cnc(Oc2ccc3c(c2)CC[C@@H](c2ccccc2)O3)s1"
measure_unit = "nM"
measured = 200

[[record]]
compound = "CCc1ccccc1C1CCc2cc(Oc3ncc(C(=O)NCCN4CCNC4=O)s3)ccc2O1 (stereo not shown)"
measure_unit = "nM"
measured = 1100

[[record]]
compound = "O=C(NCc1ccncc1)c1sc(Oc2ccc3c(c2)CCC(c2ccccc2)O3)nc1Cl (stereo not shown) [Example 177, hydrochloride]"
measure_unit = "nM"
measured = 300

[[record]]
compound = "O=C(N[C@H](CO)c1ccccc1)c1cnc(Oc2ccc3c(c2)CCC(c2cccnc2)O3)s1 (stereo partly shown)"
measure_unit = "nM"
measured = 1100

[[record]]
compound = "O=C(NCCc1ccncc1)c1cnc(Oc2ccc3c(c2)CCC(c2ccccc2)O3)s1 (stereo not shown) [compound 61, hydrochloride]"
measure_unit = "nM"
measured = 200

[[record]]
compound = "CO[C@H]1CNC[C@@H]1NC(=O)c1cnc(Oc2ccc3c(c2)CC[C@@H](c2ccccc2)O3)s1"
measure_unit = "nM"
measured = 400

[[record]]
compound = "Nc1cc(CNCc2cnc(Oc3ccc4c(c3)CCC(c3ccccc3)O4)s2)ccn1 (stereo not shown)"
measure_unit = "nM"
measured = 400

[[record]]
compound = "COC(=O)C1(C)CCN(C(=O)c2cnc(Oc3ccc4c(c3)CC[C@@H](c3ccccc3)O4)s2)C1 (stereo partly shown)"
measure_unit = "nM"
measured = 500

[[record]]
compound = "CN1CCOc2cc(S(=O)(=O)NCc3cnc(Oc4ccc5c(c4)CCC(c4ccccc4)O5)s3)ccc21 (stereo not shown)"
measure_unit = "nM"
measured = 1100

[[record]]
compound = "Cc1nc(C)c(S(=O)(=O)NCc2cnc(Oc3ccc4c(c3)CCC(c3ccccc3)O4)s2)s1 (stereo not shown)"
measure_unit = "nM"
measured = 600

[[record]]
compound = "Cn1cc(S(=O)(=O)NCc2cnc(Oc3ccc4c(c3)CCC(c3ccccc3)O4)s2)cn1 (stereo not shown)"
measure_unit = "nM"
measured = 900

[[record]]
compound = "Cc1ccccc1C1CCc2cc(Oc3ncc(C(=O)NCCO)s3)ccc2O1 (stereo not shown)"
measure_unit = "nM"
measured = 400

[[record]]
compound = "O=C(O)CN1CCN(C(=O)c2cnc(Oc3ccc4c(c3)CC[C@@H](c3ccccc3)O4)s2)CC1"
measure_unit = "nM"
measured = 1300

[[record]]
compound = "O=C(NCc1ccnc(O)c1)c1cnc(Oc2ccc3c(c2)CCC(c2ccccc2)O3)s1 (stereo not shown)"
measure_unit = "nM"
measured = 200

[[record]]
compound = "O=C(NCc1ccncn1)c1cnc(Oc2ccc3c(c2)CCC(c2ccccc2)O3)s1 (stereo not shown)"
measure_unit = "nM"
measured = 600

[[record]]
compound = "Cc1cc(CNCc2cnc(Oc3ccc4c(c3)CCC(c3ccccc3)O4)s2)no1 (stereo not shown)"
measure_unit = "nM"
measured = 200

[[record]]
compound = "O=C(NCc1ccno1)c1cnc(Oc2ccc3c(c2)CC[C@H](c2ccccc2)O3)s1"
measure_unit = "nM"
measured = 400


Every entry's value here was drawn from patent US20140243292A1.
